Every entry's value here was drawn from the RNAGym collection of RNA variant scans (doi:10.7554/elife.80360).

B1: Hairpin Ribozyme (parent)
chain: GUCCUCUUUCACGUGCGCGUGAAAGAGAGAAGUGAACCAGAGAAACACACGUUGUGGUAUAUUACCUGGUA

# Variants of: B1
# Experimental protocol: self-cleavage, relative activity (ratio to wild type); higher = more cleavage; co-transcriptional
Parameter measured: self-cleavage
The reply should be a number, written without any unit.

Q: Give its self-cleavage value. Item: A41C U63G
A: 0.102

Q: Query (variant): U14C G56A ; field requested: self-cleavage
A: 0.143

Q: What value of self-cleavage has been reported for the following variant? U8C G42A
A: 0.177

Q: Need self-cleavage of A47U G69C , thanks.
A: 0.227

Q: Report self-cleavage for A28U G34C please.
A: 1.23

Q: For A49C C66A , what is its reported self-cleavage?
A: 0.28

Q: Please look up its self-cleavage: C48U U62G
A: 0.108

Q: Which value of self-cleavage has been reported for C10U U33C in the records?
A: 0.0734

Q: Would you kindly share the measured self-cleavage for A31C C37U ?
A: 0.134

Q: Item G29A A43U has what recorded self-cleavage?
A: 0.0816

Q: Give its self-cleavage value. Item: A36G A61C
A: 0.328

Q: Which self-cleavage reading was recorded for the variant C38A U60A ?
A: 0.0853

Q: # query: self-cleavage of entry A43C G54U
A: 0.241

Q: I have this variant here, A47G U60A , and I need its recorded self-cleavage.
A: 0.139

Q: Entry under review: U9C G40A . Reported self-cleavage?
A: 0.313

Q: What self-cleavage value was documented for this variant, G27U U63C ?
A: 0.0849

Q: Which self-cleavage reading was recorded for the variant C18A G57A ?
A: 0.209

Q: What measured self-cleavage goes with C48G U62G ?
A: 0.107

Q: # input variant: G19A C65U ; wanted: its self-cleavage
A: 0.265

Q: So what does the record say about self-cleavage for C16G G68U ?
A: 0.132

Q: Data request, read-out self-cleavage, for G21C G25U
A: 0.399

Q: Can you look up the measured self-cleavage of A24G A43G for me?
A: 0.132

Q: Given C46G U55A , state its recorded self-cleavage.
A: 0.142

Q: # input variant: U2G C46G ; wanted: its self-cleavage
A: 0.12

Q: Can you look up the measured self-cleavage of G51U G68A for me?
A: 0.312

Q: Need self-cleavage, item U8A C37A
A: 0.288

Q: Please give the measured self-cleavage for this variant: G17C C37A
A: 0.287

Q: Given the variant A35U G42A , what is its reported self-cleavage?
A: 0.181

Q: Quick one: self-cleavage of G13C A44U ?
A: 0.137

Q: self-cleavage for U53G U55C ?
A: 0.369

Q: Entry C50G A59C has what self-cleavage?
A: 0.221

Q: # input variant: G13U A64U ; wanted: its self-cleavage
A: 0.147

Q: May I ask what self-cleavage has been recorded for A44U U67G ?
A: 0.102

Q: Please look up its self-cleavage: G27C G54U
A: 0.192

Q: Requested read-out: self-cleavage. Entry: A24G C38G
A: 0.197

Q: For the variant A11G A44U , what self-cleavage is on record?
A: 0.137

Q: Any idea what self-cleavage was measured for U14A U62A ?
A: 0.0586

Q: Looking for the measured self-cleavage of G54C U62A , can you help?
A: 0.186

Q: # lookup: self-cleavage of C18U A28G
A: 1.26

Q: Field request: self-cleavage | item: U2G C12A
A: 0.304

Q: Could you tell me which self-cleavage is on file for G1U C46G ?
A: 0.16

Q: Requested field: self-cleavage. Item: G32A C66U
A: 0.177

Q: I am curious: what self-cleavage value has been reported for U5C U55A ?
A: 0.21

Q: Give its self-cleavage value. Item: A31C A44G
A: 0.174

Q: // query self-cleavage value for entry G1C A64G
A: 0.143

Q: Please give the measured self-cleavage for this variant: G15U A31U
A: 0.232
